tested on: Enterococcus faecalis; assay: Antimicrobial activity against Linezolid-resistant Enterococcus faecalis P5 by NCCLS method; type: functional
ASSAY_READOUT: MIC (µg/mL)
Write down the numeric answer in µg/mL and omit the unit.

Illustrative cases are given below, each with its answer.
compound_smiles=CC(=O)NC[C@H]1CN(c2ccc(-c3ccc(CNCc4ccnc5ccccc45)cc3)c(F)c2)C(=O)O1 reading=2
compound_smiles=CC(=O)NC[C@H]1CN(c2ccc(-c3ccc(CNCc4ccco4)cc3)c(F)c2)C(=O)O1 reading=4
compound_smiles=CC(=O)NC[C@H]1CN(c2ccc(-c3ccc(CNCc4ccncc4)cc3)c(F)c2)C(=O)O1 reading=2

// next entry
Data request: Requested read-out: MIC. Entry: `CC(=O)NC[C@H]1CN(c2ccc(N3CCOCC3)c(F)c2)C(=O)O1`
Data returned: 32

====

tested on: Enterococcus faecalis; test: Antimicrobial activity against Linezolid-resistant Enterococcus faecalis ATCC 29212-P5 by NCCLS method; assay type: functional
ASSAY_READOUT: MIC (µg/mL)
Write down the numeric answer in µg/mL and omit the unit.

compound="CC(=O)NC[C@H]1CN(c2ccc(-c3ccc(CNCc4cnn[nH]4)cc3)c(F)c2)C(=O)O1 [RADEZOLID]" unit_spec=µg/mL reading=1
compound=CC(=O)NC[C@H]1CN(c2ccc(-c3ccc(Cn4ccnn4)cc3)c(F)c2)C(=O)O1 unit_spec=µg/mL reading=1

// next entry
Data request: Requested read-out: MIC. Entry: CC(=O)NC[C@H]1CN(c2ccc(N3CCOCC3)c(F)c2)C(=O)O1 [LINEZOLID]
Data returned: 32

====

tested on: Streptococcus pneumoniae; assay: Antimicrobial activity against erm (B) expressing Streptococcus pneumoniae 02J1258 + L4 by NCCLS method; type: functional
Reported values of MIC for individual entries

Data request: Requested read-out: MIC. Entry: `CC(=O)NC[C@H]1CN(c2ccc(-c3ccc(Cn4cnnn4)cc3)c(F)c2)C(=O)O1`
Data returned: 0.5 µg/mL

Data request: Another: `CC(=O)NC[C@H]1CN(c2ccc(-c3ccc(Cn4ccnn4)cc3)c(F)c2)C(=O)O1`
Data returned: 0.25 µg/mL

Data request: Another: `CC(=O)NC[C@H]1CN(c2ccc(-c3ccc(CNCC#N)cc3)c(F)c2)C(=O)O1`
Data returned: 0.25 µg/mL

Data request: Another: `CC(=O)NC[C@H]1CN(c2ccc(-c3ccc(CNCc4cnoc4)cc3)c(F)c2)C(=O)O1`
Data returned: 0.125 µg/mL

Data request: Another: CC(=O)NC[C@H]1CN(c2ccc(-c3ccc(CNCc4cnn[nH]4)cc3)c(F)c2)C(=O)O1 [RADEZOLID]
Data returned: 0.25 µg/mL

Data request: Another: `CC(=O)NC[C@H]1CN(c2ccc(-c3ccc(CNCCCF)cc3)c(F)c2)C(=O)O1`
Data returned: 0.125 µg/mL

Data request: Another: `CC(=O)NC[C@H]1CN(c2ccc(-c3ccc(Cn4ncnn4)cc3)c(F)c2)C(=O)O1`
Data returned: 0.25 µg/mL

====

test system: Haemophilus influenzae; assay: Antimicrobial activity against Haemophilus influenzae by NCCLS method; assay type: functional
ASSAY_READOUT: MIC (µg/mL)
Write down the numeric answer in µg/mL and omit the unit.

compound=CC(=O)NC[C@H]1CN(c2ccc(-c3ccc(CNCCCF)cc3)c(F)c2)C(=O)O1 reading=4
compound=CC(=O)NC[C@H]1CN(c2ccc(-c3ccc(CNCc4cnoc4)cc3)c(F)c2)C(=O)O1 reading=4
compound="CC(=O)NC[C@H]1CN(c2ccc(-c3ccc(CNCc4cnn[nH]4)cc3)c(F)c2)C(=O)O1 [RADEZOLID]" reading=1
compound=CC(=O)NC[C@H]1CN(c2ccc(-c3ccc(Cn4ncnn4)cc3)c(F)c2)C(=O)O1 reading=8
compound="CC(=O)NC[C@H]1CN(c2ccc(N3CCOCC3)c(F)c2)C(=O)O1 [LINEZOLID]" reading=32

Data request: Requested read-out: MIC. Entry: `CC(=O)NC[C@H]1CN(c2ccc(-c3ccc(CNCC#N)cc3)c(F)c2)C(=O)O1`
Data returned: 8

Data request: Another: `CC(=O)NC[C@H]1CN(c2ccc(-c3ccc(Cn4cnnn4)cc3)c(F)c2)C(=O)O1`
Data returned: 4

Data request: Another: `CC(=O)NC[C@H]1CN(c2ccc(-c3ccc(Cn4ccnn4)cc3)c(F)c2)C(=O)O1`
Data returned: 4

====

system: Haemophilus influenzae; assay: Antimicrobial activity against Haemophilus influenzae A1950 by NCCLS method; type: functional
ASSAY_READOUT: MIC (µg/mL)
Write down the numeric answer in µg/mL and omit the unit.

compound=CC(=O)NC[C@H]1CN(c2ccc(-c3ccc(Cn4ccnn4)cc3)c(F)c2)C(=O)O1 reading=8
compound=CC(=O)NC[C@H]1CN(c2ccc(-c3ccc(Cn4cnnn4)cc3)c(F)c2)C(=O)O1 reading=8
compound=CC(=O)NC[C@H]1CN(c2ccc(-c3ccc(Cn4ncnn4)cc3)c(F)c2)C(=O)O1 reading=8
compound="CC(=O)NC[C@H]1CN(c2ccc(N3CCOCC3)c(F)c2)C(=O)O1 [LINEZOLID]" reading=32

Data request: Requested read-out: MIC. Entry: `CC(=O)NC[C@H]1CN(c2ccc(-c3ccc(CNCCCF)cc3)c(F)c2)C(=O)O1`
Data returned: 4

====

Reported values of MIC for individual entries
test system: Enterococcus faecalis; test: Antimicrobial activity against Linezolid-resistant Enterococcus faecalis ATCC 29212-P5 by NCCLS method; format: functional
Write down the numeric answer in µg/mL and omit the unit.

Data request: Requested read-out: MIC. Entry: `CC(=O)NC[C@H]1CN(c2ccc(-c3ccc(Cn4cnnn4)cc3)c(F)c2)C(=O)O1`
Data returned: 1

====

tested on: Haemophilus influenzae; assay: Antimicrobial activity against Haemophilus influenzae A1950 by NCCLS method; assay type: functional
Reported values of MIC for individual entries
Write down the numeric answer in µg/mL and omit the unit.

Illustrative cases are given below, each with its answer.
compound=CC(=O)NC[C@H]1CN(c2ccc(-c3ccc(CNCc4cnoc4)cc3)c(F)c2)C(=O)O1 assay_readout=MIC unit_spec=µg/mL reading=8
compound=CC(=O)NC[C@H]1CN(c2ccc(-c3ccc(CNCC#N)cc3)c(F)c2)C(=O)O1 assay_readout=MIC unit_spec=µg/mL reading=8

// next entry
Data request: Find the measured MIC: item CC(=O)NC[C@H]1CN(c2ccc(-c3ccc(CNCc4cnn[nH]4)cc3)c(F)c2)C(=O)O1 [RADEZOLID] , target or system Haemophilus influenzae.
Data returned: 1

====

tested on: Enterococcus faecalis; assay: Antimicrobial activity against Linezolid-resistant Enterococcus faecalis ATCC 29212-P5 by NCCLS method; format: functional
ASSAY_READOUT: MIC
A complete answer gives the number and then names the unit.

Illustrative cases are given below, each with its answer.
compound_smiles=CC(=O)NC[C@H]1CN(c2ccc(-c3ccc(CNCCCF)cc3)c(F)c2)C(=O)O1 reading="2 µg/mL"
compound_smiles=CC(=O)NC[C@H]1CN(c2ccc(-c3ccc(CNCc4cnoc4)cc3)c(F)c2)C(=O)O1 reading="2 µg/mL"
compound_smiles=CC(=O)NC[C@H]1CN(c2ccc(-c3ccc(CNCC#N)cc3)c(F)c2)C(=O)O1 reading="1 µg/mL"

Data request: Requested read-out: MIC. Entry: `CC(=O)NC[C@H]1CN(c2ccc(-c3ccc(Cn4ncnn4)cc3)c(F)c2)C(=O)O1`
Data returned: 1 µg/mL
